Reference source for all entries: paper PMC8596843

Answer each item with its documented MIC.
- Tested on: Staphylococcus epidermidis ATCC 14990, type strain
- METHOD_NOTES: Antibacterial MIC assay, Gram-positive panel
- Assay type: cell-based
- CONDITION_INFO: Table S1 panel; n=4
- Method: Smiles: C1C=CCCC(=CC1)C1=CCCC=CCC1.C[Pt]C.C[Pt]C […] For all the bacterial assays, each strain was cultured in Cation-adjusted Mueller Hinton broth (CAMHB; Bacto Laboratories 212322) at 37 °C overnight. […] The resultant mid-log phase cultures were diluted with CAMHB (CFU mL−1 measured by OD600), then added to each well of the compound-containing plates (384-well non-binding surface (NBS) plates; Corning CLS3640), giving a cell density of 5 × 10^5 CFU mL−1 and a total volume of 50 μL. […]
Answers are plain numbers, in µM.

Study these solved cases before continuing.
C1=CCCC=CCC1.[CH3][Pt][C](F)(C(F)(F)F)C(F)(F)F	100
C1=C\CC/C=C\CC/1.[Cl][Pd][Cl]	100
CCC1=CCCC=CCC1.[CH3][Pt][Cl]	200
C1=CCCC=CCC1.[CH3][Pt][CH3]	6.25
C1=CCCC=CCC1.COc1cc[c]([Pt][CH3])cc1	50

Would you mind giving MIC for every molecule in the list below?
1. C1=CCCC=CCC1.[CH3][Pt][Cl]
2. CC(C)C([O][Pt][Cl])/C1=C/CC/C=C\CC1 (stereo not shown)

Completion:
[50, 6.25]

----------
Answer each item with its documented MIC.
- Tested on: Staphylococcus aureus VRS 1, VRSA (VanA)
- METHOD_NOTES: Antibacterial MIC assay, Gram-positive panel
- Assay type: cell-based
- CONDITION_INFO: Table S1 panel; n=4
One number for each entry, in µM.

Study these solved cases before continuing.
C1=CCCC=CCC1.COc1cc[c]([Pt][CH3])cc1	200
CC(C)C([O][Pt][Cl])/C1=C/CC/C=C\CC1 (stereo not shown)	12.5

Prompt: Request: MIC, test system Staphylococcus aureus VRS 1, VRSA (VanA), entry `C1=CCCC=CCC1.[CH3][Pt][C](F)(C(F)(F)F)C(F)(F)F`
Completion: 200
